# target_under_test: vanilloid receptor (VR1), human VR1 gene (Homo sapiens, UniProt Q8NER1)
# Construct: expressed in transfected cells; host or cells: CHO K1 cells (ECACC), stably transfected
# Sequence (Q8NER1 whole entry): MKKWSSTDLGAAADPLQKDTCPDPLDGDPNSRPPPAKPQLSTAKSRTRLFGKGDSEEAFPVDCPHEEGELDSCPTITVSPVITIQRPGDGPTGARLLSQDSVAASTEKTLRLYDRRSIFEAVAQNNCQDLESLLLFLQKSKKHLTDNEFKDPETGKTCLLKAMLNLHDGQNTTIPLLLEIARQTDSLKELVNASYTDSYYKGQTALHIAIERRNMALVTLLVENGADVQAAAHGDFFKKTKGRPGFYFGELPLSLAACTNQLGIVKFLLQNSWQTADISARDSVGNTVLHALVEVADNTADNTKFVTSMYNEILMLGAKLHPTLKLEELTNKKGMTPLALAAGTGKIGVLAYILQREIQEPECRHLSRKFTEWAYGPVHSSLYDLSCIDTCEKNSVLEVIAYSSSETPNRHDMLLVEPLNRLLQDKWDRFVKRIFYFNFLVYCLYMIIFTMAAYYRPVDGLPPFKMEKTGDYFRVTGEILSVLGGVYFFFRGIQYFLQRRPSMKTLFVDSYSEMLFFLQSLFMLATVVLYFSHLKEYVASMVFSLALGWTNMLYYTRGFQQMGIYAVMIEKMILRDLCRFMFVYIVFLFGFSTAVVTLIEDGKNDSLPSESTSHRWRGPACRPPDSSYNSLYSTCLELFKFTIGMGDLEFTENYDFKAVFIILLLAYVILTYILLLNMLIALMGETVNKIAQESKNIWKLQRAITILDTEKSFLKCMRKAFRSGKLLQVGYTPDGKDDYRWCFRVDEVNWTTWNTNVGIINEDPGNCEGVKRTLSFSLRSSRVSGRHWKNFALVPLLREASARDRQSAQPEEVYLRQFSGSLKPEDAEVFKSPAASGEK
# protocol_notes: FLIPR Ca2+ influx assay on CHO K1 cells transfected with the VR1 gene, capsaicin stimulus (Pharmacological method II)
# Type: cell-based
# experimental_context: CHO-K1, compound 5 μM, species column unclear (taken as human), read-out: Capsaicin: inhibition (in percent) @ 5 μM
# Text: […] The agonistic or antagonistic action of the substances to be investigated on the vanilloid receptor (VR1) may also be determined with the following assay. According to this assay, the influx of Ca^2+ through the channel is quantified with the assistance of a Ca^2+-sensitive dye (type Fluo-4, Molecular Probes Europe BV, Leiden, Netherlands) in a Fluorescent Imaging Plate Reader (FLIPR, Molecular Devices, Sunnyvale, USA). […]
measured_parameter: inhibition at 5 µM (%)

stdin: Look up inhibition at 5 µM: CSc1nc2ccc(C(C)C(=O)NCc3ccc(C(C)(C)C)nc3N3CCC(C)CC3)cc2s1 (centres unmarked) [Example 34]
stdout: 38

stdin: Similarly, CC(C(=O)NCc1ccc(C(C)(C)C)cc1)c1ccc2c(c1)OCCN2 (centres unmarked) [Example 20] ?
stdout: 9

stdin: // same read-out, input: CC1CCN(c2nc(C(C)(C)C)ccc2CNC(=O)C(C)c2ccc3nc(NC(=O)OC(C)(C)C)sc3c2)CC1 (centres unmarked) [Example 55]
stdout: 12

[I] CC(C(=O)NCc1ccc(C(C)(C)C)cc1)c1ccc2nc(NC(=O)OC(C)(C)C)sc2c1 (centres unmarked) [Example 50]
[II] CC1CCN(c2nc(C(F)(F)F)ccc2CNC(=O)C(C)c2ccc3nc(NC(=O)OC(C)(C)C)sc3c2)CC1 (centres unmarked) [Example 40]
stdin: Pick one, I or II : lowest reported inhibition at 5 µM. Answer by stating the label of the chosen item.
stdout: I

# credit: patent US8084484B2
